Target: integrin αvβ3-vitronectin interaction (Homo sapiens, UniProt P05106+P06756)
Test: Competitive inhibition of integrin αvβ3-vitronectin interaction on integrin microarray (ProteoChip)
Conditions: half-maximal inhibition concentration relative to control without peptides; ND means no activity was detected
From the text: ProteoChip™ (Proteogen, Inc., Seoul, South Korea) was used as a protein chip and integrins were spotted on the ProteoChip™ (Proteogen, Inc., Seoul, South Korea) with the microarrayer (CM-1000; Proteogen, Inc., Seoul, South Korea) to fabricate integrin receptor microarray (See Lee, Y. S. et al.: ProteoChip: a highly sensitive protein microarray proposed by a novel method of protein immobilization for application of protein-protein interaction studies, Proteomics 2003; 3: 2289-2304). […]
Residues, ends and D or L forms follow the SMILES beside them.
readout_kind: IC50 (nM)

1 = CC(C)C[C@H](NC(=O)[C@H](Cc1c[nH]cn1)NC(=O)[C@@H](N)Cc1c[nH]cn1)C(=O)N[C@H](C(=O)N[C@@H](Cc1c[nH]cn1)C(=O)N[C@@H](CCCCN)C(N)=O)C(C)C [HHLVHK-NH2] (H-HHLVHK-NH2; N-terminus assumed)
2 = CC(C)[C@H](NC(=O)[C@H](CC(=O)O)NC(=O)CNC(=O)[C@@H](N)Cc1c[nH]cn1)C(=O)N[C@@H](Cc1c[nH]cn1)C(=O)N[C@@H](CCCCN)C(N)=O [HGDVHK-NH2] (H-HGDVHK-NH2; N-terminus assumed)
Lowest IC50? choose 1 or 2 Kindly state the label of the option you pick.
2

----------
Target: integrin αvβ3-vitronectin interaction (Homo sapiens, UniProt P05106+P06756)
Assay: Competitive inhibition of integrin αvβ3-vitronectin interaction on integrin microarray (ProteoChip)
Conditions: half-maximal inhibition concentration relative to control without peptides; ND means no activity was detected
pIC50: −log10 of the molar value. Residues, ends and D or L forms follow the SMILES beside them.
readout_kind: pIC50

Some entries whose results are on file:
CC(C)C[C@H](NC(=O)[C@H](CC(=O)O)NC(=O)CNC(=O)[C@@H](N)Cc1c[nH]cn1)C(=O)N[C@@H](Cc1c[nH]cn1)C(=O)N[C@@H](CCCCN)C(N)=O [HGDLHK-NH2] (H-HGDLHK-NH2; N-terminus assumed)	10.36
CC(C)C[C@H](NC(=O)CNC(=O)[C@@H](N)Cc1c[nH]cn1)C(=O)N[C@H](C(=O)N[C@@H](Cc1c[nH]cn1)C(=O)N[C@@H](CCCCN)C(N)=O)C(C)C [HGLVHK-NH2] (H-HGLVHK-NH2; N-terminus assumed)	11.45

1 = CC(C)[C@H](NC(=O)[C@H](CC(=O)O)NC(=O)[C@H](CO)NC(=O)[C@@H](N)Cc1c[nH]cn1)C(=O)N[C@@H](Cc1c[nH]cn1)C(=O)N[C@@H](CCCCN)C(N)=O [HSDVHK-NH2] (H-HSDVHK-NH2; N-terminus assumed)
2 = CC(C)C[C@H](NC(=O)[C@H](CO)NC(=O)[C@@H](N)Cc1c[nH]cn1)C(=O)N[C@H](C(=O)N[C@@H](Cc1c[nH]cn1)C(=O)N[C@@H](CCCCN)C(N)=O)C(C)C [HSLVHK-NH2] (H-HSLVHK-NH2; N-terminus assumed)
3 = CC(C)C[C@H](NC(=O)[C@H](CC(C)C)NC(=O)[C@H](Cc1c[nH]cn1)NC(=O)[C@@H](N)Cc1c[nH]cn1)C(=O)N[C@@H](Cc1c[nH]cn1)C(=O)N[C@@H](CCCCN)C(N)=O [HHLLHK-NH2] (H-HHLLHK-NH2; N-terminus assumed)
Would you mind ranking these compounds by ascending pIC50? Answer format: list of labels, ordered as asked.
2, 3, 1
